Cited source for all entries: ChEMBL document CHEMBL1140238

# Measured Target: Casein kinase I isoform alpha (Homo sapiens) (UniProt P48729)
# Sequence (P48729 2-337 limits assumed): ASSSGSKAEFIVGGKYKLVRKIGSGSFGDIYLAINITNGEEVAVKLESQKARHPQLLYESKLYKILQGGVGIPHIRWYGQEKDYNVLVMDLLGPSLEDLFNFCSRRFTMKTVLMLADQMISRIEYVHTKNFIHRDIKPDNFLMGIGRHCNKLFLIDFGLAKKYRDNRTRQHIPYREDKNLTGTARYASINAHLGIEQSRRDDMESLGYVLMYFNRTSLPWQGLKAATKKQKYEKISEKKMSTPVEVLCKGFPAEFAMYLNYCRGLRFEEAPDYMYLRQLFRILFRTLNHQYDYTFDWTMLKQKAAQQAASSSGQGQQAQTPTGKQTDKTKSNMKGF
# Test Description: In vitro percent inhibition of Casein kinase 1 alpha at 10 uM concentration of compound dissolved in 100% DMSO using 5''-[gamma-33P]-triphosphate
inhibition values by entry

Recorded results for 6 compounds are shown here.
INSERT INTO measurements (compound_string, measured_attribute, result) VALUES
  ('COC(=O)Cc1csc(-c2nc3cc4ccccc4cc3nc2-c2cc(CC(=O)OC)cs2)c1', 'inhibition', '3%'),
  ('c1csc(-c2nc3cc4c(cc3nc2-c2cccs2)OCO4)c1', 'inhibition', '9%'),
  ('c1csc(-c2nc3cc4c(cc3nc2-c2cccs2)OCCCO4)c1', 'inhibition', '-5%'),
  ('O=C(O)c1ccc(-c2nc3cc4ccccc4cc3nc2-c2ccc(C(=O)O)s2)s1', 'inhibition', '7%'),
  ('O=C(O)Cc1csc(-c2nc3cc4ccccc4cc3nc2-c2cc(CC(=O)O)cs2)c1', 'inhibition', '18%'),
  ('COc1cc2nc(-c3cccs3)c(-c3cccs3)nc2cc1OC', 'inhibition', '-1%');

Query string: Please list inhibition recorded for the compound "O=C(O)CCc1ccc(-c2nc3cc4ccccc4cc3nc2-c2ccc(CCC(=O)O)s2)s1"
Result string: 40%

Query string: Determine from records and report inhibition for "O=C(O)CCCc1ccc(-c2nc3cc4ccccc4cc3nc2-c2ccc(CCCC(=O)O)s2)s1"
Result string: 24%

====

# Test Description: In vitro percent inhibition of Cyclin-dependent kinase 2-cyclin A at 10 uM concentration of compound dissolved in 100% DMSO using 5''-[gamma-33P]-triphosphate
Measured Attribute: inhibition (%)
Unit % implied. Number only.

Below, each entry is followed by its recorded inhibition result.
INSERT INTO results (compound_string, result_units, recorded_number) VALUES
  ('Oc1cc2nc(-c3cccs3)c(-c3cccs3)nc2cc1O', '%', 7),
  ('COc1cc2nc3nc(-c4cccs4)c(-c4cccs4)nc3nc2cc1OC', '%', 27);

API: the following record is the query input.
Query string: Kindly indicate its recorded inhibition. Item: "COc1cc2nc(-c3cccs3)c(-c3cccs3)nc2cc1OC"
Result string: -5

====

# Test Description: Partition coefficient (logP)
# Format: physicochemical
# Assay Setup: octanol/water
Consider the following partition of reported logP into named classes: range A (below 4), range B (4 to below 5), range C (5 or more)

See these solved cases before continuing.
INSERT INTO assay_data (compound_string, class) VALUES
  ('c1csc(-c2nc3cc4ccccc4cc3nc2-c2cccs2)c1', 'range C'),
  ('O=C(O)c1ccc2cc3nc(-c4cccs4)c(-c4cccs4)nc3cc2c1', 'range C'),
  ('c1ccc(-c2nnn[nH]2)cc1', 'range A');

Query string: Which category does the recorded logP put "O=C(O)CCCc1ccc(-c2nc3cc4ccccc4cc3nc2-c2ccc(CCCC(=O)O)s2)s1" in?
Result string: range B

Query string: For "CCCCC(=O)c1ccccc1" , which logP bin applies?
Result string: range A

Query string: Sort "COC(=O)CCCc1ccc(-c2nc3cc4ccccc4cc3nc2-c2ccc(CCCC(=O)OC)s2)s1" into one of the categories.
Result string: range C

Query string: For this compound, which bin applies? "O=C(O)Cc1ccc(-c2nc3cc4ccccc4cc3nc2-c2ccc(CC(=O)O)s2)s1"
Result string: range A

Query string: # bin label for "Oc1cc2nc(-c3cccs3)c(-c3cccs3)nc2cc1O"
Result string: range B
